Just for reference, ChEMBL document CHEMBL3286230 is where these values come from.

- tested-on: Prostaglandin G/H synthase 2 (Homo sapiens)
- Sequence (P35354 whole entry): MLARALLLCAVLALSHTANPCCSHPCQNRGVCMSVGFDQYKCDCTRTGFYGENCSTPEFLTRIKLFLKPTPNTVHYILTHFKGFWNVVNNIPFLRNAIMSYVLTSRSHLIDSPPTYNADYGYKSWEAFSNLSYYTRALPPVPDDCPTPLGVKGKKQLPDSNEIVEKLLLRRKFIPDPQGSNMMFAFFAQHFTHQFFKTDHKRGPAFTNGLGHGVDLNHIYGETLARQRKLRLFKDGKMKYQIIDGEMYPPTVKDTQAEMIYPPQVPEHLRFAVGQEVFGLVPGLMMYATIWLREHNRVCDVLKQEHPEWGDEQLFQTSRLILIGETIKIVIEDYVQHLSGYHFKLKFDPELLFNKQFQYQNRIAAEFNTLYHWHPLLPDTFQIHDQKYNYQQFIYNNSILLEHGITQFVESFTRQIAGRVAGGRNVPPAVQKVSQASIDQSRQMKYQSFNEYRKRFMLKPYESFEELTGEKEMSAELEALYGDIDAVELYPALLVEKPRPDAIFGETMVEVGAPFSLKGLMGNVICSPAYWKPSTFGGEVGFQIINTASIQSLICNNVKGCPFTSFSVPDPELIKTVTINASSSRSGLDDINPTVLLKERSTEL
- test-method-notes: Inhibition of human recombinant COX-2 using arachidonic acid as substrate preincubated for 5 mins followed by substrate addition measured after 5 mins by HPLC analysis
pIC50: −log10 of the molar value.
parameter-measured: pIC50

INSERT INTO measurements (molecular_string, tested_on, parameter_measured, reported_measurement) VALUES
  ('CC(C)=CCC[C@H](C(=O)O)[C@@H]1CC[C@]2(C)C3=C(CC[C@@]12C)[C@@]1(C)CC[C@H](O)C(C)(C)[C@@H]1CC3', 'Prostaglandin G/H synthase 2 (Homo sapiens)', 'pIC50', '< 5.00'),
  ('CC(C)[C@@H]1CC[C@]2(C)[C@H](C(=O)C=C3[C@@H]4[C@@H](C)[C@H](C)CC[C@]4(C)CC[C@]32C)[C@@]1(C)CCC(=O)O', 'Prostaglandin G/H synthase 2 (Homo sapiens)', 'pIC50', '< 5.00');

Attention now turns to another entry.
// sample CC(C)=CCC[C@H](C(=O)O)[C@@H]1CC[C@]2(C)C3=CC[C@H]4C(C)(C)[C@H](O)CC[C@]4(C)[C@H]3CC[C@@]12C , its pIC50 was < 5.00

---

- tested-on: Prostaglandin E synthase (Homo sapiens)
- test-method-notes: Inhibition of microsomal PGES1 isolated from IL-1beta-stimulated human A549 cells assessed as residual activity at 10 uM preincubated for 15 mins followed by substrate addition measured after 1 min by RP-HPLC analysis relative to control
- Format: cell-free
In this scheme, each record receives a class according to its Activity; the ranges are lower band (below 30%), central band (30% to below 40%), upper band (40% or more)

Example entries and their recorded answers appear below.
INSERT INTO results (molecular_string, class) VALUES
  ('CC(C)[C@@H]1CC[C@]2(C)[C@H](CC=C3[C@@H]4CC(C)(C)CC[C@]4(C)CC[C@]32C)[C@@]1(C)CCC(=O)O', 'upper band'),
  ('C=C(C)[C@@H]1CC[C@]2(C)CC[C@]3(C)[C@H](CC[C@@H]4[C@@]5(C)CC[C@H](O)[C@](C)(C(=O)O)[C@@H]5CC[C@]43C)[C@@H]12', 'upper band'),
  ('CC(C)[C@@H]1CC[C@]2(C)[C@H](CC=C3[C@@H]4[C@@H](C)[C@H](C)CC[C@]4(C)CC[C@]32C)[C@@]1(C)CCC(=O)O', 'upper band'),
  ('CC(C)=CCC[C@H](C(=O)O)[C@H]1CC[C@]2(C)C3=C(CC[C@@]12C)[C@@]1(C)CCC(=O)C(C)(C)[C@H]1CC3', 'lower band'),
  ('CC(C)=CCC[C@H](C(=O)O)[C@@H]1CC[C@]2(C)C3=C(CC[C@@]12C)[C@@]1(C)CC[C@@H](O)C(C)(C)[C@@H]1CC3', 'lower band');

Which bin, given its Activity, does C=C(C)[C@@H]1CC[C@]2(C)CC[C@]3(C)[C@H](CC[C@@H]4[C@@]5(C)CC[C@H](OC(C)=O)[C@](C)(C(=O)O)[C@@H]5CC[C@]43C)[C@@H]12 occupy?
upper band

Band of CC(C)[C@@H]1CC[C@]2(C)[C@H](C(=O)C=C3[C@@H]4[C@@H](C)[C@H](C)CC[C@]4(C)CC[C@]32C)[C@@]1(C)CCC(=O)O ?
lower band

Would you mind sorting C=C(C)[C@@H]1CC[C@]2(C)[C@H](CC=C3[C@@H]4[C@@H](C)[C@H](C)CC[C@]4(C)CC[C@]32C)[C@@]1(C)CCC(=O)O into the appropriate category?
upper band

Which bin, given its Activity, does CC(=O)O[C@@H]1CC[C@]2(C)[C@H]3CC[C@@]4(C)[C@H]([C@H](CCC=C(C)C)C(=O)O)CC[C@]4(C)C3=CC[C@H]2C1(C)C occupy?
lower band

Bin this entry: C=C(C)[C@@H]1CC[C@]2(CO)CC[C@]3(C)[C@H](CC[C@@H]4[C@@]5(C)CC[C@H](OC(C)=O)[C@](C)(C(=O)O)[C@@H]5CC[C@]43C)[C@@H]12
central band

Hey, which category is CC(=O)O[C@@H]1CC[C@]2(C)C3=C(CC[C@H]2C1(C)C)[C@@]1(C)CC[C@@H]([C@H](CCC=C(C)C)C(=O)O)[C@]1(C)CC3 in, do you know?
central band
